Recorded log10 of IC50 by entry
Molecular target: human IRAK-4 (Homo sapiens (Human))
Sequence (Q9NWZ3 whole entry): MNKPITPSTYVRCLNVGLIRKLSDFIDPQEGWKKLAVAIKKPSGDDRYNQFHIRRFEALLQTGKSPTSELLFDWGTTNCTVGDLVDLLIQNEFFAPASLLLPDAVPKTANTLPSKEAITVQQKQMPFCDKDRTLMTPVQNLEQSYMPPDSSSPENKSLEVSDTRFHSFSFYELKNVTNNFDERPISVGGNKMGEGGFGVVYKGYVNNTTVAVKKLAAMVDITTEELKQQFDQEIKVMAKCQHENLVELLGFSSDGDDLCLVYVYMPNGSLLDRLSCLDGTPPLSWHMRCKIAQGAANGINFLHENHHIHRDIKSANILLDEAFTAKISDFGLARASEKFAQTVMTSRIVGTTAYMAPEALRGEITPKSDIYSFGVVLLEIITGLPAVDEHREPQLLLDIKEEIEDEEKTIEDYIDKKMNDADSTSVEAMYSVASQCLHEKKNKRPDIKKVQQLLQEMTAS
Assay: Measurement of human IRAK-4 inhibitory activity (TR-FRET)
Type: biochemical
Settings: 1 nM IRAK-4, 0.5 µM peptide substrate, 10 µM ATP, 23° C., 30 minutes
Values reflect log10 of reported IC50 (nM).

Example compounds with recorded log10 of IC50:
compound	result-value
CN1CC[C@H]2C[C@H]1C(=O)NCCCOc1c(-c3cnc(COCC4CC4)nc3)ccc3ncc(nc13)N2	0.36
O=C1OCCCOc2c(-c3cnc(CO[C@H]4CCC[C@@H]4O)nc3)ccc3ncc(cc23)N[C@H]2CCN[C@H]1C2	0.40

// fetch human IRAK-4 (Homo sapiens (Human)) log10 of IC50 for Cc1ncc(-c2ccc3ncc4nc3c2OCCCN(C)C(=O)[C@@H]2C[C@H](CCN2C)N4)cn1
0.82

// fetch human IRAK-4 (Homo sapiens (Human)) log10 of IC50 for CCCOCc1ncc(-c2ccc3ncc4nc3c2OCC(F)COC(=O)[C@@H]2C[C@H](CCN2C)N4)cn1 (stereo partly shown)
0.40

// fetch human IRAK-4 (Homo sapiens (Human)) log10 of IC50 for CCCOCc1ncc(-c2ccc3ncc4nc3c2OCCCC2CCCN2C(=O)[C@@H]2C[C@H](CCN2C)N4)cn1 (stereo partly shown)
1.64

// fetch human IRAK-4 (Homo sapiens (Human)) log10 of IC50 for CCCOCc1ncc(-c2ccc3ncc4cc3c2OCCCOC(=O)[C@@H]2C[C@H](CCN2C)N4)cn1
0.47

// fetch human IRAK-4 (Homo sapiens (Human)) log10 of IC50 for Cc1ncc(-c2ccc3ncc4nc3c2OCC(F)COC(=O)[C@@H]2C[C@H](CCN2C)N4)cn1 (stereo partly shown)
0.06

// fetch human IRAK-4 (Homo sapiens (Human)) log10 of IC50 for Cc1ncc(-c2ccc3ncc4nc3c2OCC(F)CNC(=O)[C@@H]2C[C@H](CCN2C)N4)cn1 (stereo partly shown) [a-01-19]
0.20

// fetch human IRAK-4 (Homo sapiens (Human)) log10 of IC50 for CCCOCc1ncc(-c2ccc3ncc4nc3c2OCC2(CC2)CNC(=O)[C@@H]2C[C@H](CCN2C)N4)cn1
0.63

// fetch human IRAK-4 (Homo sapiens (Human)) log10 of IC50 for Cc1ncc(-c2ccc3ncc4nc3c2OCC2(CC2)CNC(=O)[C@@H]2C[C@H](CCN2C)N4)cn1
0.65

// fetch human IRAK-4 (Homo sapiens (Human)) log10 of IC50 for CN1CC[C@H]2C[C@H]1C(=O)NCC(F)(F)COc1c(-c3cncnc3)ccc3ncc(nc13)N2
0.17

// fetch human IRAK-4 (Homo sapiens (Human)) log10 of IC50 for CCCOCc1ncc(-c2ccc3ncc4cc3c2OCC(F)COC(=O)[C@@H]2C[C@H](CCN2C)N4)cn1 (stereo partly shown)
0.81

* * *

Test system: human acute monocytic leukemia cell strain THP-1
Assay: LPS-stimulated TNFα production inhibition test using THP-1 cells
Type: cell-based
Conditions: Homo sapiens, THP-1, 4 h, LPS 2.5 ng/mL, TNFα by HTRF
Recorded IC50 by entry
A number alone suffices; assume µM.

Example compounds with recorded IC50:
compound	reported-metric	result-value
CCCOCc1ncc(-c2ccc3ncc4nc3c2OCCCC2CCCN2C(=O)[C@@H]2C[C@H](CCN2C)N4)cn1 (stereo partly shown)	IC50	0.068
CN1CC[C@H]2C[C@H]1C(=O)NCC(C)(C)COc1c(-c3cncnc3)ccc3ncc(nc13)N2	IC50	0.253

// fetch human acute monocytic leukemia cell strain THP-1 IC50 for CN1CC[C@H]2C[C@H]1C(=O)NCC(F)(F)COc1c(-c3cnc(CO)s3)ccc3ncc(nc13)N2
0.118

// fetch human acute monocytic leukemia cell strain THP-1 IC50 for Cc1ncc(-c2ccc3ncc4nc3c2OCC(F)COC(=O)[C@@H]2C[C@H](CCN2C)N4)cn1 (stereo partly shown)
0.113

// fetch human acute monocytic leukemia cell strain THP-1 IC50 for CN1CC[C@H]2C[C@H]1C(=O)NCCCCOc1c(-c3cncnc3)ccc3ncc(nc13)N2
0.162

// fetch human acute monocytic leukemia cell strain THP-1 IC50 for CCCOCc1ncc(-c2ccc3ncc4nc3c2OCCC(C)CNC(=O)[C@@H]2C[C@H](CCN2C)N4)cn1 (stereo partly shown)
0.075

// fetch human acute monocytic leukemia cell strain THP-1 IC50 for CN1CC[C@H]2C[C@H]1C(=O)NCCCOc1c(-c3cnc(COCC4CC4)nc3)ccc3ncc(nc13)N2
0.117

// fetch human acute monocytic leukemia cell strain THP-1 IC50 for Cc1ncc(-c2ccc3ncc4cc3c2CCCCNC(=O)[C@@H]2C[C@H](CC(C)N2C)N4)cn1 (stereo partly shown)
0.324

// fetch human acute monocytic leukemia cell strain THP-1 IC50 for CCCOCc1ncc(-c2ccc3ncc4nc3c2OCCCOC(=O)[C@@H]2C[C@H](CCN2C)N4)cn1
0.081

// fetch human acute monocytic leukemia cell strain THP-1 IC50 for CN1CCCOc2c(-c3cncnc3)ccc3ncc(nc23)N[C@H]2CCN(C)[C@@H](C2)C1=O
0.177
